The measured values listed here are drawn from ChEMBL document CHEMBL1137129.

# system: Inhibitor of nuclear factor kappa-B kinase subunit beta (Homo sapiens)
# Sequence (O14920 whole entry): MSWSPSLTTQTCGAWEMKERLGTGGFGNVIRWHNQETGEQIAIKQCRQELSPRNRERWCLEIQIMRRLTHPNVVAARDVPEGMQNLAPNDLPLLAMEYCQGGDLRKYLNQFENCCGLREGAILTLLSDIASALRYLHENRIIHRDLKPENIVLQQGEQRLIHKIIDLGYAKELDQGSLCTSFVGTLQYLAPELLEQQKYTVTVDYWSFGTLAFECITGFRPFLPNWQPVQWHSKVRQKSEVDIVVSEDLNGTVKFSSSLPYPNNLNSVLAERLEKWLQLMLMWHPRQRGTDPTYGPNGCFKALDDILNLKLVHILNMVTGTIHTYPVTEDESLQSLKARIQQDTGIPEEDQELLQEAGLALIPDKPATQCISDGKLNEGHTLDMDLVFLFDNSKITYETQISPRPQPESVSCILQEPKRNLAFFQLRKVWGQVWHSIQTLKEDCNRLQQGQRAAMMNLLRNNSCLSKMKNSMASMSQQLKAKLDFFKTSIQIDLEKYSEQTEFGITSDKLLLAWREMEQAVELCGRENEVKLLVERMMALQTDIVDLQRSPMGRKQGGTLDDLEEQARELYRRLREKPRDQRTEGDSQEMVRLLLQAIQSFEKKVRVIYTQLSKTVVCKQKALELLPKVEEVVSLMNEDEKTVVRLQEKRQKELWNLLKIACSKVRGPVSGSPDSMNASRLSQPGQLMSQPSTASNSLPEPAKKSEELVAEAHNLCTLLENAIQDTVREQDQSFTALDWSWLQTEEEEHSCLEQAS
# experimental-protocol: Inhibitory activity against recombinant human I-kappa-B-kinase beta
pIC50: −log10 of the molar value.
measure-name: pIC50

[
  {
    "molecule": "N#Cc1c(C2CCNCC2)cc(-c2ccccc2O)nc1N",
    "system": "Inhibitor of nuclear factor kappa-B kinase subunit beta (Homo sapiens)",
    "pIC50": 6.52
  },
  {
    "molecule": "CNc1nc(-c2ccccc2O)cc(C2CCCNC2)c1C#N (configuration not stated)",
    "system": "Inhibitor of nuclear factor kappa-B kinase subunit beta (Homo sapiens)",
    "pIC50": 5.19
  },
  {
    "molecule": "CCCCC(N)c1cc(-c2ccccc2O)nc(N)c1C#N (configuration not stated)",
    "system": "Inhibitor of nuclear factor kappa-B kinase subunit beta (Homo sapiens)",
    "pIC50": 6.32
  },
  {
    "molecule": "N#Cc1c(N)nc(-c2ccccc2O)c(F)c1C1CCCNC1 (configuration not stated)",
    "system": "Inhibitor of nuclear factor kappa-B kinase subunit beta (Homo sapiens)",
    "pIC50": 6.64
  }
]

I. CC(N)c1cc(-c2ccccc2O)nc(N)c1C#N (configuration not stated)
II. N#Cc1c(C2CCCCN2)cc(-c2ccccc2O)nc1N (configuration not stated)
Exercise: Lower value of pIC50 belongs to which: I or II ? Bench note: the answer is the label of the chosen record.
Solution: II
(II: 6.28, I: 6.82)
